- testTarget: UniProt Q14416
- Sequence (Q14416 19-872): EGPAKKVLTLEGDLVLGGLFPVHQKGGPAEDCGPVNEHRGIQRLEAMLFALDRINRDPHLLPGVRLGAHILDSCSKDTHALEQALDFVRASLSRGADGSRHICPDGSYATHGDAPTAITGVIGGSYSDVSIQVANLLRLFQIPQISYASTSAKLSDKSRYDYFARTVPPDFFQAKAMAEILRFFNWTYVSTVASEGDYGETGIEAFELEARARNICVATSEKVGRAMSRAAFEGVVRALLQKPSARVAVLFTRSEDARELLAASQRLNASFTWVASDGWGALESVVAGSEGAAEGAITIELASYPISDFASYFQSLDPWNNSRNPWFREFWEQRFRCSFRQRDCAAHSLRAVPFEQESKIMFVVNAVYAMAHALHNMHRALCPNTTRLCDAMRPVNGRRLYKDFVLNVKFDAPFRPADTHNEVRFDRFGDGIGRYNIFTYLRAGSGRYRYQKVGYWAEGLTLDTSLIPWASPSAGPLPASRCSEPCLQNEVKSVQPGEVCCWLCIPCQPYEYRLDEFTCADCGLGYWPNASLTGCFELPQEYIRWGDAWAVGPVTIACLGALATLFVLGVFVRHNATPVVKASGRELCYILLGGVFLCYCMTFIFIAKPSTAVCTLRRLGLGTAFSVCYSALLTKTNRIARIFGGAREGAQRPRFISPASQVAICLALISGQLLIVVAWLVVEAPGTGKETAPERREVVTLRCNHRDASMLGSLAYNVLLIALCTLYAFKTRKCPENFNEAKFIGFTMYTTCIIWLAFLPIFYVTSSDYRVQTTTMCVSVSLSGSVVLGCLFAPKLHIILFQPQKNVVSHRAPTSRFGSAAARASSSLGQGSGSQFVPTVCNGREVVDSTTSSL
readoutType: Ki

[
  {
    "molecule": "N[C@H](C(=O)O)[C@@H]1[C@@H](C(=O)O)[C@@H]1C(=O)NCc1ccccc1 (racemic)",
    "readoutType": "Ki",
    "testValue": "3.42 µM"
  }
]
